molecular target: USP28 catalytic domain (Homo sapiens); test: Ubiquitin rhodamine 110 kinetic assay, USP28; type: biochemical; conditions: IC50 ± SEM, USP28, catalytic domain of the human protein; kinetic Ub-Rho assay; mean ± SEM (n)
Sequence (Q96RU2 149-703): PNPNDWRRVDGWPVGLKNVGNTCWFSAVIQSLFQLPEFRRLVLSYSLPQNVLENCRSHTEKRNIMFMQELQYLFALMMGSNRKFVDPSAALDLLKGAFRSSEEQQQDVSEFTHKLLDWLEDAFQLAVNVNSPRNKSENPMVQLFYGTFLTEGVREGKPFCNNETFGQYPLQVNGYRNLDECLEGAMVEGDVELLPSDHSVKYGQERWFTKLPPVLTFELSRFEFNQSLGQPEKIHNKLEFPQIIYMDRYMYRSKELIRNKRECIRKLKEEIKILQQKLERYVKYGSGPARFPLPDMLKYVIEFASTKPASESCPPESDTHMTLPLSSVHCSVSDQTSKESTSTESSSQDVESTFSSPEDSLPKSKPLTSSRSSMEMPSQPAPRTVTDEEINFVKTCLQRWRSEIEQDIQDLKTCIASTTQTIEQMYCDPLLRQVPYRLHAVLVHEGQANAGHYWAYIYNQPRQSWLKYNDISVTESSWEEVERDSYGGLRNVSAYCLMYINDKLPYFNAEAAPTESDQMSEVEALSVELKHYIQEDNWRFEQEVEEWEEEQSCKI
observed.property: pIC50
pIC50 (log units): -log10 of the concentration in mol/L.

Ask | Could you please provide reported pIC50 for O=C1c2ccccc2NC2(C(=O)Nc3ccc(Br)cc32)N1c1ccccc1 (stereo not shown) ? Thanks!
Reply | 5.36

Ask | Could you please provide reported pIC50 for CCCc1nc2sc3c(NCCc4ccc(OC)c(OC)c4)ncnc3c2c2c1CCC2 ? Thanks!
Reply | 7.34

Ask | Could you please provide reported pIC50 for Cc1ccc(S(=O)(=O)N(C)C)cc1NC(=O)Cc1ccc(Cl)c(Cl)c1 ? Thanks!
Reply | 6.40

Ask | Could you please provide reported pIC50 for O=c1ccc(-c2noc(Cc3cccc(Cl)c3)n2)c[nH]1 ? Thanks!
Reply | 6.75
